Measured IC50 values are reported for all entries that follow.
System: 817829-284-R-J1-PDC complex spheroid viability;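 further: spheroids exposed to compounds for 7 days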
Assay: Anticancer human tumor 817829-284-R-J1-PDC patient-derived colon adenocarcinoma cell line growth inhibition [POLQ]
Conditions: curve of first compound; second compound 1 µM
Procedure: Multicellular complex tumor spheroid response to Polymerase (POL) inhibitors (novobiocin, ART-558, RP6685) in combination with a variety of drugs and investigational agents in selected tumor cell lines The POL inhibitors (novobiocin, ART-558, and RP6685) were evaluated both individually and in combination with standard of care and investigational anticancer small molecules within a complex spheroid model of solid tumors. . […]

>  <molecule>
Nc1ccn(C2OC(CO)C(O)C2(F)F)c(=O)n1 (centres undefined) + COC1C(OC(N)=O)C(O)C(Oc2ccc3c(O)c(NC(=O)c4ccc(O)c(CC=C(C)C)c4)c(=O)oc3c2C)OC1(C)C

>  <IC50>
< 31.6 nM

$$$$
>  <molecule>
CCc1c2c(nc3ccc(O)cc13)-c1cc3c(c(=O)n1C2)COC(=O)[C@]3(O)CC + Cc1cccc(N(C)C(=O)C2C(O)CCN2c2nc(C)cc(C(F)(F)F)c2C#N)c1

>  <IC50>
< 3.16 nM

$$$$
>  <molecule>
COc1cccc(OCCCN)c1-c1cc(Nc2cnc(C#N)cn2)n[nH]1 + COC1C(OC(N)=O)C(O)C(Oc2ccc3c(O)c(NC(=O)c4ccc(O)c(CC=C(C)C)c4)c(=O)oc3c2C)OC1(C)C

>  <IC50>
< 3.16 nM

$$$$
>  <molecule>
COc1cccc2c1C(=O)c1c(O)c3c(c(O)c1C2=O)CC(O)(C(=O)CO)CC3OC1CC(N)C(O)C(C)O1 (centres undefined) + Nc1ccc(C#CCN(C(=O)Cc2ncc(C(F)(F)F)cc2C(F)(F)F)c2ccc(F)cc2)nn1

>  <IC50>
< 31.6 nM

$$$$
>  <molecule>
CC(=O)O[C@H]1C(=O)[C@@]2(C)[C@H]([C@H](OC(=O)c3ccccc3)[C@]3(O)C[C@H](OC(=O)[C@H](O)[C@@H](NC(=O)c4ccccc4)c4ccccc4)C(C)=C1C3(C)C)[C@]1(OC(C)=O)CO[C@@H]1C[C@@H]2O + Nc1ccc(C#CCN(C(=O)Cc2ncc(C(F)(F)F)cc2C(F)(F)F)c2ccc(F)cc2)nn1

>  <IC50>
< 9.49 nM

$$$$
>  <molecule>
COc1cc2cc(C(=O)CCC(=O)O)sc2cc1OC + COC1C(OC(N)=O)C(O)C(Oc2ccc3c(O)c(NC(=O)c4ccc(O)c(CC=C(C)C)c4)c(=O)oc3c2C)OC1(C)C

>  <IC50>
> 10000 nM

$$$$

response.value for CC1COCCN1c1cc(C2(O)CC3CCC(C2)O3)c2cnn(-c3ccn[nH]3)c2n1 (centres undefined) + Cc1cccc(N(C)C(=O)C2C(O)CCN2c2nc(C)cc(C(F)(F)F)c2C#N)c1 (field: IC50) = < 31.6 nM

// recorded IC50 for CNCc1ccc(-c2[nH]c3cc(F)cc4c3c2CCNC4=O)cc1 + Nc1ccc(C#CCN(C(=O)Cc2ncc(C(F)(F)F)cc2C(F)(F)F)c2ccc(F)cc2)nn1 : > 10000 nM

Measured IC50 of COc1cc2cc(C(=O)CCC(=O)O)sc2cc1OC + Cc1cccc(N(C)C(=O)C2C(O)CCN2c2nc(C)cc(C(F)(F)F)c2C#N)c1 : > 10000 nM

The measurements presented in this section are drawn from PubChem BioAssay AID1963839.
